The entries below come with measured growth values attached.
# Test system: LOX IMVI melanoma
# measurement notes: NCI-60 one-dose screen, 48 h (100 = growth as untreated, 0 = no growth, -100 = all killed)
# assay setup: 10 µM
Compounds without any hit were thinned out: in the full panel of roughly 83,000, 20% have a hit. Active and inactive are the calls of the source. The calls were made as follows: active = growth percent below 10; inactive = the rest.

{"smi": "COc1ccc(C(=O)COc2cccc(/C=C3\\Cc4ccccc4C3=O)c2)cc1", "growth": "90.3% (inactive)"}
{"smi": "C[C@@H](C[C@H](CCO)c1ccccc1)c1ccc2ccccc2c1", "growth": "-94.5% (active)"}
{"smi": "CNC(=O)c1cn(C2CC2)c2cc(N3CCN(C(=O)c4cc(OC)c(OC)c(OC)c4)CC3)c(F)cc2c1=O", "growth": "94.7% (inactive)"}
{"smi": "CCCCCCCCCCOC(c1ccccc1)c1ccccc1", "growth": "79.6% (inactive)"}
{"smi": "COc1cc(C(=O)/C(C)=C/c2c[nH]c3ccccc23)cc(OC)c1OC", "growth": "17.8% (inactive)"}
{"smi": "O=C(O)COc1c(Cl)cc([N+](=O)[O-])cc1Cl", "growth": "100% (inactive)"}

* * *

# Test system: OVCAR-4 ovarian
# measurement notes: NCI-60 one-dose screen, 48 h (100 = growth as untreated, 0 = no growth, -100 = all killed)
# assay setup: 10 µM
Compounds without any hit were thinned out: in the full panel of roughly 83,000, 20% have a hit.
# if measured growth < 50%: condition met  # else: condition not met

{"molecule": "COc1cc(/C=C/c2cc(/C=C/c3ccc(O)c(OC)c3)nc(N)n2)ccc1O", "answer label": "condition met"}
{"molecule": "CCOc1ccccc1/C=N\\N=C\\c1ccccc1O", "answer label": "condition not met"}
{"molecule": "C#CCOc1c(OC)cc(C(=O)/C(C)=C/c2cccc(N=[N+]=[N-])c2)cc1OC", "answer label": "condition not met"}
{"molecule": "COc1ccc(C(=O)N/N=C/c2cc(C(F)(F)F)ccc2Cl)cc1", "answer label": "condition not met"}
{"molecule": "COc1cc2nc(SCC(=O)Nc3cc(OC)c(OC)c(OC)c3)n(Cc3ccccc3)c(=O)c2cc1OC", "answer label": "condition met"}
{"molecule": "CCCCN(CCCC)C(=O)[C@H](CC)[C@@H]1CC[C@@H](C)[C@@H]([C@H](C)[C@@H](O)[C@@H](C)C(=O)[C@H](CC)C2O[C@]3(C=C[C@@H](O)[C@]4(CC[C@@](C)([C@H]5CC[C@](O)(CC)[C@H](C)O5)O4)O3)[C@H](C)C[C@@H]2C)O1 (stereo partly specified)", "answer label": "condition met"}

* * *

# Test system: NCI/ADR-RES ovarian
# measurement notes: NCI-60 one-dose screen, 48 h (100 = growth as untreated, 0 = no growth, -100 = all killed)
# assay setup: 10 µM
About 83,000 compounds went through this panel and 20% of them were active in at least one assay; those are over-represented in the sample as a whole.
measurement type: growth (%)

{"molecule": "CCc1c2c(nc3ccc(OC(=O)N4CCC(N5CCCCC5)CC4)cc13)-c1cc3c(c(=O)n1C2)COC(=O)[C@]3(O)CC", "measurement type": "growth", "result number": 24.5}
{"molecule": "Nc1nc(Cl)nc2c1ncn2C1O[C@H](CO)[C@@H](O)[C@@H]1F (some centres undefined)", "measurement type": "growth", "result number": 16.6}
{"molecule": "CCOC(=O)c1cc(C(=O)c2ccc(F)cc2F)n2ccccc12", "measurement type": "growth", "result number": 88.5}
{"molecule": "CCOC(=O)CC(S(=O)(=O)c1ccccc1)S(=O)(=O)c1ccccc1", "measurement type": "growth", "result number": 104}
{"molecule": "O=C1c2ccccc2C(=O)N1CCCCNc1ccccc1", "measurement type": "growth", "result number": 103}
{"molecule": "CNC(=O)c1cn(C2CC2)c2cc(N3CCN(C(=O)c4cc(OC)c(OC)c(OC)c4)CC3)c(F)cc2c1=O", "measurement type": "growth", "result number": 96.7}
{"molecule": "NNC(=O)Oc1c(Cl)cc(Cl)cc1[N+](=O)[O-]", "measurement type": "growth", "result number": 101}
{"molecule": "CCNCC(=O)Nc1ccc(C(=O)OCC)cc1", "measurement type": "growth", "result number": 103}
{"molecule": "O=C(N/N=C/c1ccc(Cl)cc1)c1ccc(Cc2n[nH]c(=O)c3cccnc23)cc1", "measurement type": "growth", "result number": 101}
